System: Saccharomyces cerevisiae
experiment-description: transcriptional activation domain activity (GFP:mCherry ratio, weighted mean of sorted bins, harmonized to initial dataset scale) (arbitrary fluorescence ratio units); higher = stronger transcriptional activation
test-settings: beta-estradiol 1 µM; induction time 4 h
Hi, to clarify the labels: Satisfied covers transcriptional activation domain activity from 50000 upward, Not satisfied covers anything below 50000.

seq-string	assigned-label
LLIYGIVGFINLIKGEYLIVITGCKKIGSLVHNAEIYRATSFQILPVTHGLSS	Satisfied
KGGRKCKKGRAGEEAGMPARRRKGGERGGRGGKTGARGGEEGGGGEGGAARNG	Not satisfied
YLIRLILVILLMEFMLHYIYVQALCKSKNFENYTPYQLLMISFFSLKFIWLKL	Satisfied
AAMLLQRVDPNILGNAANVDKTLIHSMAWCLAKIMLFFDPSYITGLLQAYFKL	Not satisfied

Q: Is it the case that DNDYNLDDTNNDNTNSMQSILEDFVSSEEALKFMPDAGRDARRYSEVVTSSFP has transcriptional activation domain activity reaching or exceeding 50000?
A: Satisfied

Q: Is it the case that PAPAAKKEEKPAAATAEAPKEEAAAAVAAEEPKETKEEEKKEEAKEEKKEEAK has transcriptional activation domain activity reaching or exceeding 50000?
A: Not satisfied

Q: Is it the case that LHRLHLARVTVDKEGKLVSTTNMTILNLWLVWRGPMREDRLTIEITLFQAFVG has transcriptional activation domain activity reaching or exceeding 50000?
A: Not satisfied

Q: Is it the case that NSTVHNLIELIPLQQLCGFCCFSMRFVVFLDLLSTVVQPVIVGYIVYLIVILT has transcriptional activation domain activity reaching or exceeding 50000?
A: Satisfied

Q: Is it the case that TSTGRFAFRQHRDHTTIHEGSWVSAGPGYDVGNRMWLLSRVVINAVVLELSSL has transcriptional activation domain activity reaching or exceeding 50000?
A: Not satisfied

###

Tested on: Saccharomyces cerevisiae
experiment-description: transcriptional activation domain activity (GFP:mCherry ratio, weighted mean of sorted bins, harmonized to initial dataset scale) (arbitrary fluorescence ratio units); higher = stronger transcriptional activation
test-settings: beta-estradiol 1 µM; induction time 4 h
readout-name: transcriptional activation domain activity
Give a plain numeric answer without units written out.

seq-string	endpoint-result
KLLCVGRPFRASSTEVVVTMALLSMLRHLPTTRWKDSLKLLAWVLEQYIYRFT	51000
VWEMCLVVGMGSELDVLYRVNNTVFVGCFCLARLTIVLLFAMSMLYLPMFRRD	61200
QCYNYLRVILMVSVGQGLARSVHWCMFLYQQGLDYVLWYYRNTLLLVSFLIGW	62200
MGFFILFYFLFSLWVCGFGFFSRLSVLYLGGFVLFLINHLSLFLYIIFFFFMF	38800
SSNGRKSSKRRSRDKDEDEDEDEEDRKRRKRRRERERSKEKEERRSVLTGKKI	27200

Q: I am curious: what transcriptional activation domain activity value has been reported for MLLLRVAGGRVMGCDVVGGFFFIFLFYLFIILGFVCCLVGWHVCWVFWFLVGF ?
A: 54300

Q: I am curious: what transcriptional activation domain activity value has been reported for ILSPTLFLLFSSSPLPLLFYPHFPFLVLTSYFLLLLYSSVSLFIAFLHSLFLI ?
A: 41300

Q: I am curious: what transcriptional activation domain activity value has been reported for IKPEEPVVAAAEEPATAPVVEETKPEEVAAEVAAEEDAAPVEEATPAEEVKPE ?
A: 12400

Q: I am curious: what transcriptional activation domain activity value has been reported for VYIFLTFFIATWWPLCLVNLFGWMLLYLFRGVFPEAIMLIFNVLSRVVTIHRI ?
A: 42000

Q: I am curious: what transcriptional activation domain activity value has been reported for TNLYDHAVTPEILLEQLAYVDNFIPSLDNEFSNVDWNVNTTHNNANNNGADTF ?
A: 47300

Q: I am curious: what transcriptional activation domain activity value has been reported for KTKEGAAKNTKKSGERGKEKGLAGAKSKKSPINNSVKGKKSPSTKKTVKKAGK ?
A: 31600

Q: I am curious: what transcriptional activation domain activity value has been reported for ASNAPGTGASRSAAAAATAAISRAKGAAQQQQAQKKPDASSSRPAGKQPAVKE ?
A: 26900

Q: I am curious: what transcriptional activation domain activity value has been reported for YIAPCGTWTPYMNLFLGSTVCIFIGFDVFAPFSYRGLITNYFGLLWFCFMFLF ?
A: 78400

Q: I am curious: what transcriptional activation domain activity value has been reported for FARVLLNGWFRTFHKVVSTAECVAWLVLFLPYAIGVLLVVRCVLGFHDIPKPK ?
A: 45500

Q: I am curious: what transcriptional activation domain activity value has been reported for NWYWLATTMYFLYGETVIYYFKHIVLVDKVLLPLATHHRFISFILYVFGFVFF ?
A: 58300

Q: I am curious: what transcriptional activation domain activity value has been reported for MHFAVKVKMQLFFFIFSLTLFFFLWYFFFFFPVVYGVFSSGVLGVFFSLFSFF ?
A: 66200

Q: I am curious: what transcriptional activation domain activity value has been reported for AIRRSFAHVFCLCCIMEFPTFILGLGSLYPSLRSNVFFALSFFATRIVLHLML ?
A: 65700

###

Test system: Saccharomyces cerevisiae
experiment-description: transcriptional activation domain activity (GFP:mCherry ratio, weighted mean of sorted bins, harmonized to initial dataset scale) (arbitrary fluorescence ratio units); higher = stronger transcriptional activation
test-settings: beta-estradiol 1 µM; induction time 4 h
transcriptional activation domain activity: recorded values
Give a plain numeric answer without units written out.

# annotated cases, reported transcriptional activation domain activity shown
seq-string	endpoint-result
MTLITIIDLESFIFEDCIDLILFSQFLDSFQHSAVLTAYINWYTNADWWRSIV	66900
EDDDGKGNKQKTSEKRKLQNRQAQRNFRERKEKVSCPSSPAAPRASQGTRGSC	23900
INGLFMLLLVYYLTLYHLARCLGYSVLSYLAHFIRFDGFCPLLHTCAGLLFSS	42300
VVCHFVIMMASMSYKIVICVIIGVHADLMVMDARWRSLGSWLYLLCGVIVAPA	67300
MTLASLAARRSNCMKRRVGCVVVSQPDRRVISTGYNGTPRGIRNCGEGGCPRC	39100

Q: I am curious: what transcriptional activation domain activity value has been reported for VYVDNDGLPARSQWVLMYERMGEQGGMTLAARFVMFVDFLVQMVRLLSRSPLY ?
A: 34600

Q: I am curious: what transcriptional activation domain activity value has been reported for IRSSSHLFPISPFYFVFLFWSSFSVFTMLLLPPTIPRSNQFRAFSSFLWFSWI ?
A: 67000

Q: I am curious: what transcriptional activation domain activity value has been reported for ACAVLLSVVDGLTPLSIICASCSTTGAYWFCCFSMRFFVFIDLLGTLLLYLII ?
A: 74900

Q: I am curious: what transcriptional activation domain activity value has been reported for TSAAPAFGTSGFSAAKPATPAQASAFGSPAALGAKASPWGAQNSSSSGTTAGA ?
A: 31100

Q: I am curious: what transcriptional activation domain activity value has been reported for MEASFYFSSSSFCSAFLFFYFFILFFWGGFPLFPSQLFLSLSLLFIHTLSLFP ?
A: 26700

Q: I am curious: what transcriptional activation domain activity value has been reported for LIPTEGGELALGGAPLEDEDESTSDEEETPKASFQARLERLRKRMDGRPIKDI ?
A: 26300

###

Test system: Saccharomyces cerevisiae
experiment-description: transcriptional activation domain activity (GFP:mCherry ratio, weighted mean of sorted bins, harmonized to initial dataset scale) (arbitrary fluorescence ratio units); higher = stronger transcriptional activation
test-settings: beta-estradiol 1 µM; induction time 4 h
readout-name: transcriptional activation domain activity

# annotated cases, reported transcriptional activation domain activity shown
seq-string	endpoint-result
HHTLPYRFRLDGHAAYLGLFIHFLSVLVVVYIFRLEVCVRYRPGWMRCQCWWR	81600
GKKGPGGRKGPGGRKGPGGRGGRAGGPKGRGGKGGKGMRPGAGAPPPPPPIAA	52600

Q: I am curious: what transcriptional activation domain activity value has been reported for MFCPDVCLVLSIGDVLLAMSYWRCLRETASLFHYHLVPPFELLPLYSVRITAA ?
A: 58800

Q: I am curious: what transcriptional activation domain activity value has been reported for RKEGGGHGSSSRRDRDRDRDRSDRHRSSKKSSSSNNHDADGTAAAAADASGVH ?
A: 18200

Q: I am curious: what transcriptional activation domain activity value has been reported for HYFLVIMVLGMIELLRFPETRDAGVSLIRELLAFKFAKTSWDVVICNQLEKYL ?
A: 41300

Q: I am curious: what transcriptional activation domain activity value has been reported for ICNFFYKNILGMGVLFWYQIYCGWSSTYVYNYVYLLFWNVFWTLCPVIAIGLF ?
A: 41800

Q: I am curious: what transcriptional activation domain activity value has been reported for MMNKTPGFLSLIPPFVIDLILLRCCLDPNISLNVTYRTLYFLMWFFQSVYLAV ?
A: 53200

Q: I am curious: what transcriptional activation domain activity value has been reported for IFLACCAVFPGLGNLGFTLMQYRLGQRSFLSAAAENLTWVPFFFFFFGGLSVH ?
A: 78400

Q: I am curious: what transcriptional activation domain activity value has been reported for EEEGAVDEDEEEEDEEDPEERRKRELRERMAKMSGGMGMAGMFGGGMPMPGAA ?
A: 58900

Q: I am curious: what transcriptional activation domain activity value has been reported for MFFLSSIFLTLSMTLSPLFLYFNWLVVYGFSSLFFIFSTPTFLPPLCFFQWYC ?
A: 45200

Q: I am curious: what transcriptional activation domain activity value has been reported for VERCHRNIVTNGCAVFQAGGLVVVLVEVNRKSYLASIVPVIVNAILNEHQIIV ?
A: 40900

Q: I am curious: what transcriptional activation domain activity value has been reported for GCLLTFPNKIDWATLVIILFSETFTICLLLIKGFYWVISSAHKVGDRVLYYVA ?
A: 50800

Q: I am curious: what transcriptional activation domain activity value has been reported for MWWALCFFFFLFIFVILGFVGLLVCWFVGWLAGTFVGFSGSWFSFWVAWVVWV ?
A: 60500

Q: I am curious: what transcriptional activation domain activity value has been reported for ARAYISLCWRMIVTKGLHRPPVSSVVDKALRKRQLKLLMVLYYNDFTNAVYSG ?
A: 52300

Q: I am curious: what transcriptional activation domain activity value has been reported for MLINKLIVLRELCYSDDAAKQIVMYVISLFLSLIFYSFLPCLGLICLSILVPS ?
A: 49100

Q: I am curious: what transcriptional activation domain activity value has been reported for VIIVLIFAVACHLAFGTSVVVFIWRTALLRDISKLSRTNIMPMCISQVVADVL ?
A: 42900

Q: I am curious: what transcriptional activation domain activity value has been reported for VFVPIPGLRNRRVHILLPNLYLLHQITFFRFSRRRSTLVLLLVCVSIVFAMYA ?
A: 36500

Q: I am curious: what transcriptional activation domain activity value has been reported for MICCDLSFGGKLFCKQLFLLLLVFCAILHYNWRWVYSDVLVMILMLAMIISLA ?
A: 43600

Q: I am curious: what transcriptional activation domain activity value has been reported for VLICAHGQQQMGSGVFLGQDLLSRARMESIFCRSTVPVIVITTAYCSGLWAVP ?
A: 55900

Q: I am curious: what transcriptional activation domain activity value has been reported for MAGIVTRVCLILCSPLFPLSLRNFIILHCVYLPLSNSWYISPPFLLYCLQTVY ?
A: 62700
